# Tested on: corn
# Assay Details: Test A pre-/postemergence greenhouse test
# Format: in vivo, Zea mays
# Settings: Preemergence, 125 g ai/ha; 0 to 100 scale, 0 no effect, 100 complete control
Quantity: Corn plant response rating
Just the number, please, no unit attached.

CCn1nc(C(F)(F)F)c(C(C)S(=O)(=O)c2cccc[n+]2[O-])c1OCC(F)(F)F (stereo not shown) [Compound 69]; 0
Cn1nc(C(F)(F)F)c(C[S+]([O-])c2ccc(Cl)c[n+]2[O-])c1OC(F)F (stereo not shown) [Compound 6]; 80
Cc1cc[n+]([O-])c(S(=O)(=O)Cc2c(C(F)(F)F)nn(C)c2OCC(F)(F)F)c1 [Compound 31]; 0
Cn1nc(C(F)(F)F)c(CS(=O)(=O)c2cc(C3CC3)cc[n+]2[O-])c1OC(F)F [Compound 118]; 0
Cn1nc(C(F)(F)F)c(CS(=O)(=O)c2ccc(Cl)c[n+]2[O-])c1Cl [Compound 18]; 0
CC(C)c1cc[n+]([O-])c([S+]([O-])Cc2c(C(F)(F)F)nn(C)c2OC(F)F)c1 (stereo not shown) [Compound 109]; 50
CC(c1c(C(F)(F)F)nn(C)c1Cl)S(=O)(=O)c1cccc[n+]1[O-] (stereo not shown) [Compound 10]; 0
[O-][n+]1ccccc1[S+]([O-])C(Cl)c1c(C(F)(F)F)nn(CC(F)(F)F)c1Cl (stereo not shown) [Compound 45]; 0

# value of Corn plant response rating, corn, item Cc1cc[n+]([O-])c(S(=O)(=O)C(Cl)c2c(C(F)(F)F)nn(C)c2OCC(F)(F)F)c1 (racemic) [Compound 37] = 0

So the reported Corn plant response rating for CCOc1ccc(S(=O)(=O)Cc2c(C(F)(F)F)nn(C)c2OC(F)F)[n+]([O-])c1 [Compound 105] , on corn, turned out to be 0

Corn plant response rating on corn for CCCc1cc[n+]([O-])c(S(=O)(=O)Cc2c(C(F)(F)F)nn(C)c2OCC(F)(F)F)c1 [Compound 115] is 30

Noted Corn plant response rating for Cn1nc(C(F)(F)F)c(C[S+]([O-])c2cccc[n+]2[O-])c1OCC(F)F (stereo not shown) [Compound 75] , tested on corn: 0

GET /values?item= CC(Oc1c(CS(=O)(=O)c2ccc(Cl)c[n+]2[O-])c(C(F)(F)F)nn1C)C(F)(F)F (stereo not shown) [Compound 95] &system= corn returns Corn plant response rating: 0

Result for Cn1nc(C(F)(F)F)c(C[S+]([O-])c2cc(C(C)(C)C)cc[n+]2[O-])c1OC(F)F (racemic) [Compound 24] , tested on corn, Corn plant response rating: 0

Here Cn1nc(C(F)(F)F)c(C[S+]([O-])c2cc(Br)cc[n+]2[O-])c1Cl (racemic) [Compound 35] was tested on corn, and its Corn plant response rating came to 0

Let me check: Cc1cc(S(=O)(=O)Cc2c(C(F)(F)F)nn(C)c2OCC(F)(F)F)[n+]([O-])cc1Cl [Compound 71] , system corn, measured Corn plant response rating is 20

Sourced from patent US20100298141A1
